Hello, the source for this data is PubChem BioAssay (Tox21), in case you need it.

# assay.text: Caspase-3/7 induction in HepG2 cells by small molecules, qHTS cell viability counter screen (AID 1346981); note: nearly all actives have a fitted effect of over 30% in size
# details: CellTiter-Fluor fluorescence, 17 h; series mostly up to 92.4 µM
# Text: U.S. Tox21 Program National Center for Advancing Translational Sciences [NCATS] NIH Chemical Genomics Center [NCGC] U.S. Environmental Protection Agency [EPA] National Institutes of Environmental Health Sciences [NIEHS] National Toxicology Program [NTP] U.S. Food and Drug Administration [FDA] Tox21 Assay Overview: Apoptosis is a process of programmed cell death and plays a central role in the development of multicellular organisms. […]
Results filed as inconclusive are left out. The source made the active and inactive calls. Calls come from the whole dose curve; as a rule, active = well fitted cell-killing curve with a large enough effect in the repeat runs; inconclusive = weak or mixed curves, or effect the other way; inactive = flat fitted curve, though single readings scatter.
Outcome (select one): 1.0 = active, 0.0 = inactive

Query: recorded result category for CCCCCC=O in this test 0.0

Answer briefly: the call reported for Cc1ccc(C)c(O)c1 in this assay. 0.0

What classification did OCCNCCO end up with in this test? 0.0

Entry COc1ccc2nc(N)sc2c1 : call = ? 0.0

Field: outcome | Entry: Cc1ccc(C(C)(C)C)c(O)c1 0.0

I would be grateful if you could indicate the recorded call for C=CC(C)(O)CCC=C(C)C (stereo not drawn) . 0.0

Hey, what did the test say about O=C(O)COCCN1CCN(C(c2ccccc2)c2ccc(Cl)cc2)CC1 (stereo not drawn) ? 0.0

Record request — test call for O=C1CCc2ccccc2O1 0.0

Tell me the assay call for Cc1ccc2c(c1)C(=O)OC2=O please. 0.0

Look up the recorded call for CC1(C)C(C=C(Cl)Cl)C1C(=O)OCc1cccc(Oc2ccccc2)c1 (stereo not drawn) in this test. 0.0

Answer briefly: the call reported for C=C[Si](OCCOC)(OCCOC)OCCOC in this assay. 0.0

Please state the recorded outcome for this compound: C=C[C@H]1CN2CC[C@H]1C[C@H]2[C@H](O)c1ccnc2ccc(OC)cc12 0.0

Could you check what this test reported for CCC/C=C/C=O ? 0.0

Record lookup: outcome of this test for NCCN ? 0.0

Would you mind telling me which call this test gave CC/C=C\C/C=C\C/C=C\CCCCCCCC(=O)O ? 0.0

What call does the record list for C=CN1CCCC1=O ? 0.0

Which outcome was assigned to C1COCCN1 in this test? 0.0

I would be grateful if you could indicate the recorded call for OC[C@@H](O)[C@@H](O[C@@H]1O[C@H](CO)[C@H](O)[C@H](O)[C@H]1O)[C@H](O)[C@@H](O)CO . 0.0

Kindly provide the recorded test outcome for the following compound: Cc1ccc(S(=O)(=O)O)cc1C 0.0

For this compound, state the assay outcome: CC[C@]12CCCN3CCc4c(n(c5ccccc45)[C@@](O)(C(=O)OC)C1)[C@@H]32 0.0

Hi team, can someone confirm the assay call for CCO[Si](CCCNC(N)=O)(OCC)OCC ? 0.0

Check the results log: what was the call for CC(=O)O[C@]1(C(C)=O)CC[C@H]2[C@@H]3C=C(C)C4=CC(=O)CC[C@]4(C)[C@H]3CC[C@@]21C ? 0.0

Assay result, entry Cc1ccc(S(=O)(=O)NCl)cc1 — outcome? 0.0

Outcome logged for NCCS(=O)(=O)O in this assay: 0.0

So what was the verdict on CC1(C)OC(=O)NC1=O in this test? 0.0

Hey, what did the test say about CC(C)(C)c1cccc(C(C)(C)C)c1O ? 0.0

For this compound, state the assay outcome: O=S1(=O)CCCO1 0.0

Recorded call for O=C1OC2(c3ccccc31)c1cc(I)c(O)c(I)c1Oc1c2cc(I)c(O)c1I ? 1.0

Just curious, what result did CCCCCCCC/C=C\CCCCCCCC(=O)O get here? 0.0

How did this test come out for Nc1cc(Cl)c(N)c(Cl)c1 ? 0.0

Name the outcome recorded for NCCOCCO in the assay. 0.0

What was the test verdict on CCCCCCOCCOCCO ? 0.0

Identify the outcome logged in this assay for the compound shown: [O-]/[N+](=N\O)c1ccccc1 0.0

Which result was noted for this compound in the test: Nc1cc([N+](=O)[O-])ccc1C(=O)O 0.0

Assay result, entry CC1(C)O[C@@H]2C[C@H]3[C@@H]4C[C@H](F)C5=CC(=O)C=C[C@]5(C)[C@@]4(F)[C@@H](O)C[C@]3(C)[C@]2(C(=O)CO)O1 — outcome? 0.0

What outcome does the record of this test show for CCCCCCCCCCCCO ? 0.0

In this assay, the call recorded for C[N+](C)(C)CCO was what? 0.0

Write down the call the test reported for this compound. Item: CC(=O)Nc1ccc2c(c1)Cc1cc(NC(C)=O)ccc1-2 0.0
